Where do the numbers come from? From ChEMBL document CHEMBL1128854.

# assayedSystem: Delta-type opioid receptor (Rattus norvegicus, UniProt P33533)
# Sequence (P33533 whole entry): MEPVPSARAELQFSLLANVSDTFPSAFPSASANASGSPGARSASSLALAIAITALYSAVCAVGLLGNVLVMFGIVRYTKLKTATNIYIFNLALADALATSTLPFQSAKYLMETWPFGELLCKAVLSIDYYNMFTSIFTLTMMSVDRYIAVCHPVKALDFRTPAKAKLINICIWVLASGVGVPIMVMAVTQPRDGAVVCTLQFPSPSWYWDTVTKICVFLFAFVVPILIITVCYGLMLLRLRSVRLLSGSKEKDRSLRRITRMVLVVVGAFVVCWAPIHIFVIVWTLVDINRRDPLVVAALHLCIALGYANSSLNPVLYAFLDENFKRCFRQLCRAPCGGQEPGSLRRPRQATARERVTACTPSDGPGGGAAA
# testProtocol: Inhibition of [3H]-[D-Pen2, D-Pen5]-enkephalin (2 nM) to Opioid receptor delta 1 of male Sprague-Dawley rat brain homogenate
compounds and their reported Ki
reportedEndpoint: Ki (nM)

INSERT INTO assay_data (givensmiles, rel, observedmeasurement) VALUES
  ('CC[C@@H](C)N(C[C@@H](O)[C@@H]1CCC(=O)N1Cc1ccccc1Cl)[C@H](C)CC', '=', 550),
  ('CC[C@H](C)N(C[C@H](O)[C@H]1CCC(=O)N1Cc1ccccc1Cl)[C@@H](C)CC', '>', 5000),
  ('CC[C@@H](C)N(C[C@@H](O)[C@H]1CCC(=O)N1Cc1ccccc1Cl)[C@H](C)CC', '>', 5000),
  ('CC[C@@H](C)N(C[C@H](O)[C@@H]1CCC(=O)N1Cc1ccccc1Cl)[C@H](C)CC', '=', 265),
  ('CC[C@@H](C)N(C[C@@H](O)[C@@H]1CCC(=O)N1Cc1ccccc1Cl)[C@@H](C)CC', '>', 5000),
  ('CC[C@@H](C)N(C[C@@H](O)[C@H]1CCC(=O)N1Cc1ccccc1Cl)[C@@H](C)CC', '=', 1780),
  ('CC[C@H](C)N(C[C@H](O)[C@@H]1CCC(=O)N1Cc1ccccc1Cl)[C@@H](C)CC', '>', 5000),
  ('CC[C@@H](C)N(C[C@H](O)[C@@H]1CCC(=O)N1Cc1ccccc1Cl)[C@@H](C)CC', '>', 5000),
  ('CC[C@@H](C)N(C[C@H](O)[C@H]1CCC(=O)N1Cc1ccccc1Cl)[C@H](C)CC', '=', 1850),
  ('CC[C@H](C)N(C[C@@H](O)[C@@H]1CCC(=O)N1Cc1ccccc1Cl)[C@@H](C)CC', '>', 5000);
